Below are pIC50 values for Protein kinase C theta type (Homo sapiens, UniProt Q04759) collected from several publications.
pIC50: −log10 of the molar value.
measurementType: pIC50

Worked set:
| compound | pIC50 |
| --- | --- |
| CN1C(C)(C)CC(Nc2nc(Nc3ccc(N4CCN(S(C)(=O)=O)CC4)c(C#N)c3)ncc2F)CC1(C)C | 8.67 |
| N#Cc1cncc(-c2cc3cc(CN4CCCCC4)ccc3s2)c1Nc1cc(O)ccc1Cl | 7.52 |
| CN(C)Cc1cccc(-c2cc3c(Nc4ccc5[nH]ccc5c4)c(C#N)cnc3s2)n1 | 6.90 |
| COc1cccc(Nc2c(C#N)cncc2-c2ccc(N(C)C)cc2)c1 | 6.10 |
| CN(C)Cc1ccc(-c2cc3c(Nc4ccc5[nH]ccc5c4)c(C#N)cnc3s2)s1 | 7.47 |

I. CN(C)CCNCc1cccc(-c2cc3c(Nc4ccc5[nH]ccc5c4)c(C#N)cnc3s2)c1
II. CON(C)C(=O)c1ccc(-c2cc3c(Nc4ccc5[nH]ccc5c4C)c(C#N)cnc3s2)cc1
III. Cc1c(Nc2c(C#N)cnc3sc(-c4cncc(C=O)c4)cc23)ccc2[nH]ccc12
IV. CC1CN(c2cc(Nc3ncc(F)c(NC4CC(C)(C)N(C)C(C)(C)C4)n3)ccc2Cl)CC(C)N1C (stereo not shown)
V. N#Cc1cnc2sc(-c3ccc(CN4CCOCC4)cc3)cc2c1Nc1ccc2[nH]ccc2c1
Rank entries according to their pIC50, from the largest number down. A complete answer lists every label in the requested sequence.
III, II, I, V, IV
(III: 8.70, II: 7.32, I: 6.80, V: 6.40, IV: 5.98)

P. COc1ccc(-c2c(C)ncc(C#N)c2Nc2ccc3[nH]ccc3c2)cc1OC
Q. N#Cc1cnc2sc(-c3ccc(CNCCO)cc3)cc2c1Nc1ccc2[nH]ccc2c1
R. N#Cc1cnc2sc(CN3CCN(c4ccccc4)CC3)cc2c1Nc1ccc2[nH]ccc2c1
S. COc1ccc(-c2cc3c(Nc4ccc5[nH]ccc5c4)c(C#N)cnc3s2)cc1CN(C)C
T. Cc1noc(C)c1Oc1ncnc2ccccc12
Rank entries according to their pIC50, from the largest number down. A complete answer lists every label in the requested sequence.
P, Q, S, R, T

* * *

Below are IC50 values for Protein kinase C theta type (Homo sapiens, UniProt Q04759) collected from several publications.

| compound | IC50 |
| --- | --- |
| CC(c1ccc(F)cc1)n1c(=O)[nH]c2ncc(-c3cccc4ncccc34)nc21 (centres unmarked) | 0.1 to 5 µM |
| CC(O)c1ncc2n1CCN(c1nc(C3=C(c4c[nH]c5sccc45)C(=O)NC3=O)c3ccccc3n1)C2 (centres unmarked) | < 0.1 µM |
| O=C1NC(=O)C(c2nn(CC3CCN(CCF)CC3)c3ccccc23)=C1c1c[nH]c2sccc12 | 0.1 to 0.5 µM |
| NC(=O)c1cccc(-c2ccnc3[nH]cc(C(=O)c4cc(F)ccc4F)c23)c1 | ≤ 10 µM |
| CN1CCN(c2nc(C3=C(c4c[nH]c5sccc45)C(=O)NC3=O)c3cc(F)ccc3n2)CC1 | < 0.1 µM |
| Nc1cccc(-c2ccnc3[nH]cc(C(=O)c4ccccc4F)c23)c1 | ≤ 10 µM |
| CS(=O)(=O)c1cccc(-c2cnc3[nH]cc(C(=O)c4cc(O)ccc4F)c3c2)c1 | ≤ 10 µM |

What does the record list as IC50 for "CC(C)n1c(=O)[nH]c2ncc(-c3cccc4ncccc34)nc21" ?
20.1 to 30 µM

* * *

Below are pIC50 values for Protein kinase C theta type (Homo sapiens, UniProt Q04759) collected from several publications.
pIC50: −log10 of the molar value.
measurementType: pIC50

| molecule | testResult |
| --- | --- |
| Cc1cc(Nc2ncc(F)c(NC3CC(C)(C)N(C)C(C)(C)C3)n2)ccc1-c1ccoc1 | 7.22 |
| CC(C)c1c(-c2cccc(CN(C)C)c2)sc2ncc(C#N)c(Nc3ccc4[nH]ccc4c3)c12 | 5.92 |
| CN1CCN(c2ccc(Nc3ncc(C(F)(F)F)c(NC4CC(C)(C)N(C)C(C)(C)C4)n3)cc2Cl)CC1 | 8.40 |
| Cc1c(Nc2c(C#N)cnc3scc(-c4cccc(CN(C)C)c4)c23)ccc2[nH]ccc12 | 7.96 |
| N#Cc1cnc2sc(-c3cccc(CN4CCN(CCc5ccccc5)CC4)c3)cc2c1Nc1ccc2[nH]ccc2c1 | 6.51 |

I. N#Cc1cnc2sc(-c3cccc(CNCCO)c3)cc2c1Nc1ccc2[nH]ccc2c1
II. COc1ccc(-c2c(C)ncc(C#N)c2Nc2cccc3[nH]ccc23)cc1OC
Dear colleague, could you let me know whether I or II has the lower recorded pIC50? Thanks. Returns: label corresponding to the selected item.
II

a. COc1cc(Nc2ncc(C(F)(F)F)c(NC3CC(C)(C)N(C)C(C)(C)C3)n2)cc(OC)c1
b. CN1C(C)(C)CC(Nc2nc(Nc3ccc(-c4cnn(C)c4)c(C(F)(F)F)c3)ncc2F)CC1(C)C
Dear colleague, could you let me know whether a or b has the lower recorded pIC50? Thanks. Returns: label corresponding to the selected item.
b

* * *

pIC50: −log10 of the molar value.
Below are pIC50 values for Protein kinase C theta type (Homo sapiens) collected from several publications.

Worked set:
| molecule | pIC50 |
| --- | --- |
| CN1CCN(c2nc(C3=C(c4c[nH]c5sccc45)C(=O)NC3=O)c3ncccc3n2)CC1 | 6.30 to 7.00 |
| CC(c1ccccn1)n1c(=O)[nH]c2ncc(-c3cccc4ncccc34)nc21 (stereo not drawn) | 4.70 to 5.00 |

Continue with the molecule presented below.
Find the measured pIC50: item CC(C)(C(=O)NCC(N)c1ccc(C(=O)Nc2ccncc2)cc1)c1ccc(Cl)cc1 (stereo not drawn) , target or system Protein kinase C theta type (Homo sapiens).
6.30 to 7.30

* * *

Below are IC50 values for Protein kinase C theta type (Homo sapiens, UniProt Q04759) collected from several publications.

| molecule | testResult |
| --- | --- |
| CN1CCN(c2nc(C3=C(c4c[nH]c5sccc45)C(=O)NC3=O)c3ccncc3n2)CC1 | < 100 nM |
| Cc1cc(C)cc(-c2ccnc3[nH]cc(C=O)c23)c1 | ≤ 10000 nM |
| O=c1[nH]c2ncc(-c3cccc4ncccc34)nc2n1C1CCCOC1 (centres unmarked) | > 30000 nM |

What does the record list as IC50 for O=C1NC(=O)C(c2c[nH]c3sccc23)=C1c1nc(N2CCN3CCCC3C2)nc2ccccc12 (centres unmarked) ?
< 100 nM

What does the record list as IC50 for CN1CC2CCN(c3nc(C4=C(c5c[nH]c6sccc56)C(=O)NC4=O)c4ccccc4n3)CC2C1 (centres unmarked) ?
< 100 nM

What does the record list as IC50 for "CN1C(C)(C)CC(Nc2nc(Nc3ccc4c(c3)-n3nnnc3CO4)ncc2F)CC1(C)C" ?
< 250 nM

What does the record list as IC50 for "COc1ccc(C(C)C)cc1-c1cnc2[nH]c(=O)n([C@H](C)C(C)C)c2n1" ?
100 to 5000 nM

What does the record list as IC50 for "O=C1NC(=O)C(c2c[nH]c3sccc23)=C1c1nc(N2C[C@@H]3C[C@H]2CN3)nc2ccccc12" ?
100 to 500 nM

* * *

pIC50: −log10 of the molar value.
Below are pIC50 values for UniProtKB Q04759 collected from several publications.
measurementType: pIC50

P. CN1C(C)(C)CC(Nc2nc(Nc3ccc(-c4ccoc4)c(Cl)c3)ncc2F)CC1(C)C
Q. N#Cc1cnc2sc(-c3ccccc3)cc2c1Nc1ccc2[nH]cnc2c1
Compare the recorded pIC50 of P and Q ; state which is larger. Returns: label corresponding to the selected item.
P

a. COc1cc2c(cc1OCCN1CCOCC1)ncc1c(N)nc(-n3ccnc3)cc12
b. CC(=O)c1cccc(-c2cc3c(Nc4ccc5[nH]ccc5c4C)c(C#N)cnc3s2)c1
c. CN1C(C)(C)CC(Nc2nc(Nc3ccc(N4CCN(S(=O)(=O)C5CC5)CC4)c(Cl)c3)ncc2F)CC1(C)C
Arrange items by their pIC50 values in increasing order. A complete answer lists every label in the requested sequence.
a, b, c

a. CCN1CCN(c2ccc(Nc3ncc(F)c(NC4CC(C)(C)N(C)C(C)(C)C4)n3)cn2)CC1
b. Cc1ncc(C#N)c(Nc2ccc3[nH]ccc3c2C)c1-c1ccc(OCCN2CCCCC2)cc1
Dear colleague, could you let me know whether a or b has the lower recorded pIC50? Thanks. Returns: label corresponding to the selected item.
a
(a: 6.74, b: 7.36)

* * *

Below are pIC50 values for Protein kinase C theta type (Homo sapiens, UniProt Q04759) collected from several publications.
pIC50: −log10 of the molar value.
measurementType: pIC50

Worked set:
| cpdSmiles | testResult |
| --- | --- |
| CN1CCN(Cc2cccc(C#Cc3cc4c(Nc5ccc6[nH]ccc6c5)c(C#N)cnc4s3)n2)CC1 | 7.05 |
| Cc1c(Nc2c(C#N)cnc3sc(-c4cccc(C(=O)N(C)C)c4)cc23)ccc2[nH]ccc12 | 7.44 |
| CCN1C(=O)CCc2cc(Nc3ncc(F)c(NC4CC(C)(C)N(C)C(C)(C)C4)n3)ccc21 | 7.42 |
| Cc1c(Nc2c(C#N)cnc3scc(Br)c23)ccc2[nH]ccc12 | 7.82 |
| Cc1c(N)ccc(Nc2c(C#N)cncc2-c2cc3cc(CN4CCCCC4)ccc3s2)c1C | 6.19 |
| Cc1c(Nc2c(C#N)cnc3sc(/C=C/C(=O)N4CC[C@@H](N(C)C)C4)cc23)ccc2[nH]ccc12 | 6.76 |

P. Cc1c(Nc2c(C#N)cnc3sc(C(=O)NCc4ccccc4)cc23)ccc2[nH]ccc12
Q. CN1C(C)(C)CC(Nc2nc(Nc3ccc(-c4cccnc4)cc3)ncc2F)CC1(C)C
R. CN1C(C)(C)CC(Nc2nc(Nc3cccc(C#N)c3)ncc2C#N)CC1(C)C
Arrange items by their pIC50 values in increasing order. A complete answer lists every label in the requested sequence.
P, Q, R
